# tested-target: T1, SARS-CoV-2 Spike (S) trimer (SARS-CoV-2, UniProt P0DTC2 14-1208)
# T1 construct: also called Spike trimer
# experiment-notes: ELISA, S trimer coated, 1:50 dilution
readout-kind: Optical Density (OD; 450 nm) (OD450)
Numeric answer only, unit OD450 assumed.

Task item: I have this binder here, AB-009106 (antibody, V domains shown, human IgG1) VH: QVQLAQSGAEVKRPGASVKVSCKASGFDLTTYGVGWVRQAPGQGLEWMGWISGSSGDTHYAQQFQDRVTMTTDTPTSTAYMELRSLRSDDTAVYYCVRENIAHYGSRTFLVRYYRGMDVWGQGTTVTVAS VL: QSALTQPASVSGSPGQSITITCTGSSSDIGGFDFVSWYQQYPGKAPKLVISEVTNRPSGVSIRFSGSKSGNTASLTISGLQAEDEADYYCSSYASSYPTTNTRVFGTGTKVTVL , and I need its recorded Optical Density (OD; 450 nm).
Reply: 0.1

Task item: I have this binder here, AB-009083 (antibody, V domains shown, human IgG1) VH: EVHLLESGGGLVQPGGSLTLTCAASGFSFGNYVMGWVRQAPGKGLEWVSSIFGSGANPHYGGSVKGRFTISRDNSQNTLFLQMDSLTAEDTAVYYCARDGGTMVGGIITGGFNYFDSWGQGTLVTVSS VL: EIVLTQSPASLSLSPGGWATLSCRASRSIGNSLAWYQQRPGQAPRLLIYDASNRATGIPARFSGSGSGTDFTLTISSLEPEDFAIYYCQQRNSWPPLYTFGQGTKLEIK , and I need its recorded Optical Density (OD; 450 nm).
Reply: 0.249

Task item: I have this binder here, AB-009251 (antibody, V domains shown, human IgG1) V domain 1: QVQLVQSGAEVKKPGASVKVSCKTSGYTFTTFYIHWVRQVPGQGLEWMGIINPDGGSTNYAQEFQARVTMTTDTSTSTAYMELSSLRFEDTAVFYCATSLGAPPGLSPRTGPQRRGPPGFDFWGQGTLITVSA V domain 2: QSVLTQPPSVSGAPGQRVTISCTGSSSNIGAGYDVHWYQQLPGTAPKLLIFDNNNRPSGVPYRFSGSRSGTSASLAITGLQPEDEADYYCQSYDSSLSGRVFGGGTRVTVL , and I need its recorded Optical Density (OD; 450 nm).
Reply: 0.886

Task item: I have this binder here, AB-009271 (antibody, V domains shown, human IgG1) VH: EVQLVESGGGLIQPGGSLRLSCAASGFIVSSNYMSWVRQAPGKGLEWVSVIYSGGSTYYADSVKGRFTISRDNSKNTLYLQMNSLRAEDTAVYYCARDYGDFYFDYWGQGTLVTVSS VL: EIVMTQSPATLSVSPGERATLSCRASQSVSSNLAWYQQKPGQAPRLLIYGASTRATGIPARFSGSGSGTEFTLTISSLQSEDFAVYYCQQYYNWPRTFGQGTKVEIK , and I need its recorded Optical Density (OD; 450 nm).
Reply: 2.94
